Molecular target: UniProt:P07943
Assay: Inhibition of aldose reductase from rat lens. Value ranges from 0.02 -0.64
METRIC_NAME: pIC50
Numbers only, as −log10 of the molar value.

I am curious: what pIC50 value has been reported for O=C(O)CN(C(=O)c1cccc([N+](=O)[O-])c1)c1ccc([N+](=O)[O-])cc1 ? 6.89

====

Biological target: UniProtKB P07943
Assay: Inhibition of aldose reductase from rat lens. Value ranges from 300 - 1100
METRIC_NAME: pIC50
One number for each entry, as −log10 of the molar value.

For the compound shown here, O=C(O)CNC(=O)c1ccc(Cl)cc1 , give the reported pIC50. 3.26

====

Biological target: Aldo-keto reductase family 1 member B1 (Rattus norvegicus)
Assay: Inhibition of aldose reductase from rat lens. Value ranges from 110 - 430
METRIC_NAME: IC50 (µM)
Give bare numbers, in µM.

Item Cc1ccc(C(=O)NCC(=O)O)cc1 has what recorded IC50? 220

====

Molecular target: Aldo-keto reductase family 1 member B1 (Rattus norvegicus, UniProt P07943)
Assay: Inhibition of aldose reductase from rat lens. Value ranges from 8.5 - 410
METRIC_NAME: IC50 (µM)
One number for each entry, in µM.

Which IC50 value belongs to O=C(O)Cn1c(=O)c2ccccc2c(=O)c2ccccc21 ? 65
